Target: Recombinant full-length human IDO1 (Homo sapiens (Human), UniProt P14902)
Sequence (P14902 whole entry): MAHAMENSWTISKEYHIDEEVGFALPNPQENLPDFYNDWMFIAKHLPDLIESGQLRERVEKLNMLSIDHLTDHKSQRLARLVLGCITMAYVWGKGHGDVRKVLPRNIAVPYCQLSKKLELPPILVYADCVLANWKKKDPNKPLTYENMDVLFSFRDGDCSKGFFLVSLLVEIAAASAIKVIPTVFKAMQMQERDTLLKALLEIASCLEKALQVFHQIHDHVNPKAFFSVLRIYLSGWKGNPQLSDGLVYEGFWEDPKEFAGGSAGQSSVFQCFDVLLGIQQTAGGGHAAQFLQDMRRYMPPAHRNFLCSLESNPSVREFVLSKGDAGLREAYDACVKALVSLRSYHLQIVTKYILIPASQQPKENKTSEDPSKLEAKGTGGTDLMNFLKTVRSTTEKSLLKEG
Assay: IDO1 enzymatic assay (IDO inhibitory activity)
Format: biochemical
Settings: 2 nM enzyme, 5 μM L-tryptophan, pH6.5, 30 min pre-incubation, NFK quantified by LCMS; mean values if measured multiple times; read-out: hIDO activity (IC50 in nM)
PROPERTY NAME: IC50 (nM)

COc1ccccc1C(O)c1c(C2CC2)sc2cncn12 (racemic)	1110
Cn1cc(C(O)c2c(C3CC3)sc3cncn23)nn1 (racemic)	590
Cc1sc2cncn2c1[C@@H](O)C1CCCCC1	37.3

1 = OC(CC12CCC(CC1)C2)c1c(C2CC2)sc2cncn12 (racemic)
2 = CCc1sc2cncn2c1[C@H](O)CC1CCCCC1 [Example 100b]
Field: lower recorded IC50 (choose 1 or 2 ) Refer to your chosen entry by its label in the reply. 1
(1: 33.7 nM, 2: 1190 nM)

I = Cc1ccc(C(O)c2c(C3CC3)sc3cncn23)cc1 (racemic)
II = CCc1sc2cncn2c1[C@@H](O)CC1CCCCC1 [Example 100a]
Field: lower recorded IC50 (choose I or II ) Refer to your chosen entry by its label in the reply. II

a = CCCC1CCC(CC(O)c2c(C3CC3)sc3cncn23)CC1 (racemic)
b = O[C@@H](CC1CCCCC1)c1c(C2CCCC2)sc2cncn12 [Example 10a]
c = OC(c1c(C2CC2)sc2cncn12)C1CCC2CCCCC2C1 (centres unmarked)
d = OC(c1c(C2CC2)sc2cncn12)C1CCC1 (racemic)
In this exercise, place the 4 compounds in ascending sequence of their recorded IC50. Reply: labels, ordered per the request. d, c, b, a
(d: 25.1 nM, c: 133 nM, b: 190 nM, a: 687 nM)

I = CCC1CCC(CC(O)c2c(C3CC3)sc3cncn23)CC1 (racemic)
II = Cc1sc2cncn2c1C(O)[C@H]1C[C@@H]1c1ccccc1 (single isomer, unassigned) [Example 167]
III = CCc1sc2cncn2c1C(O)C1CC(C)(C)C1 (racemic)
Falling order of IC50, please. Reply: labels, ordered per the request. II, I, III

a = Cc1sc2cncn2c1C(O)c1ccc(N(C)C)cc1 (racemic)
b = COC1CCCC(C(O)c2c(C3CC3)sc3cncn23)C1 (centres unmarked)
Field: lower recorded IC50 (choose a or b ) Refer to your chosen entry by its label in the reply. b

A = OC(c1c[nH]nn1)c1c(C2CC2)sc2cncn12 (racemic)
B = CC1CCC(C(O)c2c(C(F)(F)F)sc3cncn23)C1 (centres unmarked)
C = OC(CC1CCC(C(F)(F)F)CC1)c1c(C2CC2)sc2cncn12 (racemic)
D = OC(c1c(Br)sc2cncn12)C1CCCCC1 (racemic)
In this exercise, place the 4 compounds in ascending sequence of their recorded IC50. Reply: labels, ordered per the request. D, B, C, A
(D: 28 nM, B: 45.5 nM, C: 92.2 nM, A: 1950 nM)

* * *

Target: Recombinant full-length human IDO1 (Homo sapiens (Human))
Assay: IDO1 enzymatic assay (IDO inhibitory activity)
Format: biochemical
Conditions: 2 nM enzyme, 5 μM L-tryptophan, pH6.5, 30 min pre-incubation, NFK quantified by LCMS; mean values if measured multiple times; read-out: hIDO activity (IC50 in nM)
Procedure: 1) Testing Compounds for IDO Inhibitory Activity in an IDO1 Enzymatic Assay: Recombinant full-length human IDO1 with a N-terminal hexahistidine tag expressed in E. coli and purified to homogeneity is incubated at a final concentration of 2 nM in assay buffer consisting of 37.5 mM phosphate buffer at pH6.5 supplemented with 10 mM sodium L-ascorbate, 0.45 μM methylene blue, 50 U/ml catalase, 0.01% BSA, and 0.01% Tween 20 (protocol modified from Seegers et al, JBS 2014). […]
PROPERTY NAME: IC50 (nM)

// below: answered compounds
OC(CC1CCC(c2ccccc2)C1)c1c(C(F)(F)F)sc2cncn12 (stereo not drawn)	666
OC(c1c(-c2ccccc2)sc2cncn12)C1CCCCC1 (racemic)	382
O[C@H](c1c(Cl)sc2cncn12)C1CCCCC1 [Example 13a]	93
OC(c1cccc(Cl)c1)c1c(C2CC2)sc2cncn12 (racemic)	65.1
OC(CC1CCC(c2ccccc2)C1)c1c(C2CC2)sc2cncn12 (stereo not drawn)	114

P = OC(CC1CCCC1)c1c(C(F)(F)F)sc2cncn12 (racemic)
Q = Cc1sc2cncn2c1C(O)c1cccs1 (racemic)
Field: lower recorded IC50 (choose P or Q ) Refer to your chosen entry by its label in the reply. P

P = COc1cccc(C(O)c2c(C3CC3)sc3cncn23)c1 (racemic)
Q = CC(C)Cc1sc2cncn2c1C(O)CC1CCCCC1 (racemic)
Field: lower recorded IC50 (choose P or Q ) Refer to your chosen entry by its label in the reply. P
(P: 251 nM, Q: 837 nM)

* * *

Biological target: Recombinant human TDO comprising amino acids 19-407 (Homo sapiens (Human))
Experiment: TDO2 enzymatic assay (TDO inhibitory activity)
Assay type: biochemical
Conditions: 15 nM enzyme, 200 μM L-tryptophan, pH7, 30 min pre-incubation, NFK quantified by LCMS; mean values if measured multiple times; read-out: hTDO activity (IC50 in nM)
PROPERTY NAME: IC50 (nM)

OC(c1c(C2CC(F)(F)C2)sc2cncn12)C1CCCCC1 (racemic)	1780
OC(c1c(C2CC2)sc2cncn12)C1CCC(c2ccccc2)CC1 (racemic)	3110
CC(C)C1CCC(CC(O)c2c(C3CC3)sc3cncn23)CC1 (racemic)	2830

I = O[C@@H](c1ccccc1)c1c(C2CC2)sc2cncn12 [Example 50a]
II = OC(CC1CCCC2CCCCC21)c1c(C2CC2)sc2cncn12 (stereo not drawn)
III = O[C@@H](CC1CCCCC1)c1c(C2CC2)sc2cncn12
Falling order of IC50, please. Reply: labels, ordered per the request. II, I, III

* * *

Molecular target: Recombinant human TDO comprising amino acids 19-407 (Homo sapiens (Human), UniProt P48775)
Sequence (P48775 19-406 limits assumed): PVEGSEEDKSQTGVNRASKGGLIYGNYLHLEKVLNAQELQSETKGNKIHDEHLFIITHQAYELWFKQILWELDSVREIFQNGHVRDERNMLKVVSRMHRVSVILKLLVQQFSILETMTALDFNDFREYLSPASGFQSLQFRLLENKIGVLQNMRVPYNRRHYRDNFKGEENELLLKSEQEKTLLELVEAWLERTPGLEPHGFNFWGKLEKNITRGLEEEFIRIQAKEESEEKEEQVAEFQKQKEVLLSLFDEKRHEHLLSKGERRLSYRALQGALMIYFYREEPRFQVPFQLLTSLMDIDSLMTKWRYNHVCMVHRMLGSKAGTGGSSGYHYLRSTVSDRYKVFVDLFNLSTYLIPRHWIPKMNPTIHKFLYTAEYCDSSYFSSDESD
Test: TDO2 enzymatic assay (TDO inhibitory activity)
Assay type: biochemical
Details: 15 nM enzyme, 200 μM L-tryptophan, pH7, 30 min pre-incubation, NFK quantified by LCMS; mean values if measured multiple times; read-out: hTDO activity (IC50 in nM)
PROPERTY NAME: IC50 (nM)

// below: answered molecules
OC(c1ccccc1Cl)c1c(C2CC2)sc2cncn12 (racemic)	3020
CC1(C)CCC(C)(C(O)c2c(C3CC3)sc3cncn23)C1 (stereo not drawn)	151
Cc1cccc(C(O)c2c(C3CC3)sc3cncn23)c1 (racemic)	22.3
CC(C)Cc1sc2cncn2c1C(O)C1CCCCC1 (racemic)	583
OC(c1c(C2CC2)sc2cncn12)C1CCC2CCCCC2C1 (stereo not drawn)	1080

a = OC(c1c(C2CCC2)sc2cncn12)C1CCCCC1 (racemic)
b = OC(c1c(C2CC2)sc2cncn12)C1CCc2ccccc2C1 (stereo not drawn)
Field: lower recorded IC50 (choose a or b ) Refer to your chosen entry by its label in the reply. a
(a: 324 nM, b: 1810 nM)

a = CCc1sc2cncn2c1C(O)C1(C)CCCCC1 (racemic)
b = CCCC1CCC(CC(O)c2c(C3CC3)sc3cncn23)CC1 (racemic)
Consider a and b . Which of these has its IC50 at a higher number? Refer to your chosen entry by its label in the reply. b

* * *

Biological target: Recombinant human TDO comprising amino acids 19-407 (Homo sapiens (Human))
Assay: TDO2 enzymatic assay (TDO inhibitory activity)
Type: biochemical
Details: 15 nM enzyme, 200 μM L-tryptophan, pH7, 30 min pre-incubation, NFK quantified by LCMS; mean values if measured multiple times; read-out: hTDO activity (IC50 in nM)
PROPERTY NAME: IC50 (nM)

// below: answered compounds
CC1(C)CCC(C(O)c2c(C(F)(F)F)sc3cncn23)CC1 (racemic)	2770
OC(CC1CCC2CCCCC2C1)c1c(C2CC2)sc2cncn12 (stereo not shown)	1790
OC(c1c(C2CC2)sc2cncn12)C1CCCC1 (racemic)	473
CCc1sc2cncn2c1C(O)C1CCCCC1 (racemic)	39.9
CC1CCCCC1CC(O)c1c(C(F)(F)F)sc2cncn12 (stereo not shown)	2680

1 = COc1cccc(C(O)c2c(C3CC3)sc3cncn23)c1 (racemic)
2 = COc1ccc(-c2sc3cncn3c2C(O)C2CCCCC2)cc1 (racemic)
Field: lower recorded IC50 (choose 1 or 2 ) Refer to your chosen entry by its label in the reply. 2
(2: 1990 nM, 1: 3310 nM)

a = Cc1sc2cncn2c1C(O)[C@H]1C[C@@H]1c1ccccc1 (single isomer, unassigned) [Example 168]
b = Cc1sc2cncn2c1C(O)C1CCCCC1 (racemic)
Field: lower recorded IC50 (choose a or b ) Refer to your chosen entry by its label in the reply. b
(b: 143 nM, a: 2710 nM)

I = CCCc1sc2cncn2c1C(O)C1CCCCC1 (racemic)
II = O[C@@H](CC1CCCCC1)c1c(Cl)sc2cncn12 [Example 16a]
III = OC(c1ccsc1)c1c(C2CC2)sc2cncn12 (racemic)
IV = OC1CCC(CC(O)c2c(C3CC3)sc3cncn23)CC1 (racemic)
V = OC(c1c(Cl)sc2cncn12)C1CC1 (racemic)
Falling order of IC50, please. Reply: labels, ordered per the request. V, III, IV, II, I
(V: 2660 nM, III: 1770 nM, IV: 1130 nM, II: 658 nM, I: 153 nM)
